Recorded values, source paper PMC9911399.

- target.desc: T1, RBFOX1 RRM RbFoxmut (Fox-RRM*) (Homo sapiens, UniProt Q9NWB1 109-208, R118D;E147R;N151S;E152T)
- T1 sequence: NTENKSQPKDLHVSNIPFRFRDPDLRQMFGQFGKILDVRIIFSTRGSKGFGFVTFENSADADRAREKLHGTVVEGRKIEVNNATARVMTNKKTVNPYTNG
- method: EMSA; HiTS-Eq, 1 nM pool, 10 min; buffer printed only for the single-RNA assays: 10 mM Tris pH 7.5, 150 mM NaCl, 3.4 mM EDTA, 0.001% NP-40, 30 C
- condition.parameters: tags: His6 N-terminal (pET28a); label: 5' 32P
Over roughly 16,000 sequences, “ka relative to ugcaugu” has its median near 0.096; the highest 2% begin near 0.35. The sample holds the highest values, similar sequences and a random draw of the others, so the mix is not that of the screen.
quantity.measured: binding signal

# binding signal (binder: AGAUUGA (DNA:RNA) RNA: GGGAGACCGGAAUUCAGAUUGUCCAGAUUGAUUAAAUCCCGUCGUAGCCACCA DNA 1: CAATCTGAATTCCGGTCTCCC DNA 2: TGGTGGCTACGACGGGATT ) is 0.117 KA relative to UGCAUGU

# binding signal (binder: GAUGAAA (DNA:RNA) RNA: GGGAGACCGGAAUUCAGAUUGUCCGAUGAAAUUAAAUCCCGUCGUAGCCACCA DNA 1: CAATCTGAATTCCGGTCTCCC DNA 2: TGGTGGCTACGACGGGATT ) is 0.0758 KA relative to UGCAUGU

# binding signal (binder: UAUGUCC (DNA:RNA) RNA: GGGAGACCGGAAUUCAGAUUGUCCUAUGUCCUUAAAUCCCGUCGUAGCCACCA DNA 1: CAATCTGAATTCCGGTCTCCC DNA 2: TGGTGGCTACGACGGGATT ) is 0.107 KA relative to UGCAUGU

# binding signal (binder: AGUUGGG (DNA:RNA) RNA: GGGAGACCGGAAUUCAGAUUGUCCAGUUGGGUUAAAUCCCGUCGUAGCCACCA DNA 1: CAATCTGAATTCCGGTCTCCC DNA 2: TGGTGGCTACGACGGGATT ) is 0.0708 KA relative to UGCAUGU

# binding signal (binder: UCGAAGU (DNA:RNA) RNA: GGGAGACCGGAAUUCAGAUUGUCCUCGAAGUUUAAAUCCCGUCGUAGCCACCA DNA 1: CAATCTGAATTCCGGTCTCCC DNA 2: TGGTGGCTACGACGGGATT ) is 0.107 KA relative to UGCAUGU

# binding signal (binder: ACGUCCU (DNA:RNA) RNA: GGGAGACCGGAAUUCAGAUUGUCCACGUCCUUUAAAUCCCGUCGUAGCCACCA DNA 1: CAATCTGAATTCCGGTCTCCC DNA 2: TGGTGGCTACGACGGGATT ) is 0.0891 KA relative to UGCAUGU

# binding signal (binder: GAAUGAC (DNA:RNA) RNA: GGGAGACCGGAAUUCAGAUUGUCCGAAUGACUUAAAUCCCGUCGUAGCCACCA DNA 1: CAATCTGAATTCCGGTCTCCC DNA 2: TGGTGGCTACGACGGGATT ) is 0.829 KA relative to UGCAUGU

# binding signal (binder: GAUUGAC (DNA:RNA) RNA: GGGAGACCGGAAUUCAGAUUGUCCGAUUGACUUAAAUCCCGUCGUAGCCACCA DNA 1: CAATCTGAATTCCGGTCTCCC DNA 2: TGGTGGCTACGACGGGATT ) is 0.109 KA relative to UGCAUGU

# binding signal (binder: CGUGUCG (DNA:RNA) RNA: GGGAGACCGGAAUUCAGAUUGUCCCGUGUCGUUAAAUCCCGUCGUAGCCACCA DNA 1: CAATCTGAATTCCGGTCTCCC DNA 2: TGGTGGCTACGACGGGATT ) is 0.126 KA relative to UGCAUGU
